TEST NAME: Cytotoxicity against human HepG2 cells after 96 hrs by MTT assay
Type: cell-based
MEASUREMENT CONTEXT: read-out: MTD
Would you please tag the item 1 (yes) when its MNTC at 96 h is 20 µM or above, and 0 (no) when it is below?

Illustrative cases are given below, each with its answer.
CPD SMILES | CLASS LABEL
CC(C)=CC[C@H](O)[C@@H](C)[C@H]1CC[C@@]2(C)C3=CC[C@H]4C(C)(C)[C@@H](O)CC[C@]4(C)C3=CC[C@]12C | 1 (yes)
C=C(C)[C@@H]1C[C@H](O)C2=C(C(=O)C[C@]3(C)[C@@H]([C@H](C)CCC(=O)OC)CC[C@@]23C)[C@@]1(C)CCC(=O)OC | 1 (yes)
C=C(C)[C@@H]1C[C@@H]2O[C@@]1(CCC(=O)O)CC1=C2[C@]2(C)CC[C@H]([C@H](C)CCC(=O)OC)[C@@]2(C)CC1=O | 1 (yes)
C=C(C)[C@@H]1C[C@H](O)C2=C(C(=O)C[C@]3(C)[C@@H]([C@H](C)CCC(=O)O)CC[C@@]23C)[C@@]1(C)CCC(=O)OC | 0 (no)
C=C(C)[C@@H]1C[C@H](O)C2=C(C(=O)C[C@]3(C)[C@@H]([C@H](C)CCC(=O)OC)CC[C@@]23C)[C@@]1(C)CCC(=O)O | 0 (no)

Q: Kindly determine if MNTC at 96 h recorded for `C[C@H]1C(=O)CC[C@@H]2[C@]1(C)CC[C@H]1[C@@]2(C)CC[C@@]2(C)[C@@H]3CC(C)(C)CC[C@]3(C)CC[C@]12C` is above or exactly 20 µM.
Result: 0 (no)

Q: Next up: `C=C(C)[C@@H]1C[C@H](O)C2=C(C(=O)C[C@]3(C)[C@@H]([C@H](C)CCC(=O)O)CC[C@@]23C)[C@@]1(C)CCC(=O)O`
Result: 1 (yes)
